# System: HEK293
# experiment: Cytotoxic Profiling of Annotated Libraries Using Quantitative High-Throughput Screening (AID 1296008); further: on the % scale 0 is the no-effect control and ±100 the full control effect; nearly all actives have a fitted effect of over 60% in size
# reportedConditions: Five cell lines viability, CellTiter-Glo ATP luminescence, 48-72 h; hits give low values
Inconclusive results are not listed.
parameterMeasured: max response (%)
Report as a plain number; the unit % is understood.

// returns reported max response for input "O=C(Nc1ccccc1)N1CCC(Cc2cnc3ccccc3c2)CC1"
-99.9

// returns reported max response for input "C=C[C@@]12COC(=O)C(=C)[C@@H]1[C@@H](O)[C@H](C(=C)C(=O)OC)[C@@H](O)C2"
-86.5

// returns reported max response for input CC1CC(=O)C2=C(C1)C1OC1C1(O)C2C(=O)c2cccc(O)c2C1O (stereo not given)
-91.9

// returns reported max response for input CC1CCCC(O)CCC/C=C/c2cc(OS(=O)(=O)O)cc(O)c2C(=O)O1 (stereo not given)
-20.5

// returns reported max response for input "CS(=O)(=O)c1ccc(Oc2cc(F)cc(C#N)c2)c2c1[C@H](O)C(F)(F)C2"
1.03

// returns reported max response for input "CC[C@H]1CN(c2nc(N)c(C(N)=O)nc2Cl)CCN1C1CCN(Cc2ccc(Cl)cc2)CC1"
-6.38

// returns reported max response for input "CC(=O)O[C@@H]1C[C@@]23C[C@@]24CC[C@H](O[C@@H]2OC[C@H](O)[C@H](O)[C@H]2O)C(C)(C)[C@@H]4CC[C@H]3[C@]2(C)[C@@H](O)C34O[C@H](C[C@@H](C)[C@@H]3[C@@]12C)[C@@H](C(C)(C)O)O4"
-6.78

// returns reported max response for input COc1cc2c(cc1OC(C)C)[C@H](c1ccc(Cl)cc1)N(c1ccc(N(C)CC3CCC(N4CCN(C)C(=O)C4)CC3)cc1)C(=O)C2 (stereo not given in full)
-97.2

// returns reported max response for input "Cc1noc(-c2ccc(-c3ccc(CC(=O)O)cc3)cc2)c1NC(=O)O[C@H](C)c1ccccc1Cl"
-3.72

// returns reported max response for input "CNc1cc2[nH]c(=O)n(-c3ccc(NC(=O)NS(=O)(=O)c4ccc(Cl)s4)cc3)c(=O)c2cc1F"
-0.0272

// returns reported max response for input "CC[C@@H](Nc1c(Nc2cccc(C(=O)N(C)C)c2O)c(=O)c1=O)c1cc(C(C)C)co1"
-14.3

// returns reported max response for input COC(=O)C1=COC(O[C@@H]2O[C@H](CO[C@@H]3O[C@H](COC(=O)/C=C\c4ccc(O)cc4)[C@@H](O)[C@H](O)[C@H]3O)[C@@H](O)[C@H](O)[C@H]2O)C2C(CO)=CCC12 (stereo not given in full)
-82.6

// returns reported max response for input "Nc1nc(O)c(C2=C3C(=Nc4ccccc43)C(=O)NCC2)[nH]1"
-2.48

// returns reported max response for input "CC(C)(O)/C=C/C(=O)[C@](C)(O)[C@H]1[C@H](O)C[C@@]2(C)[C@@H]3CC=C4[C@@H](C[C@H](O[C@@H]5O[C@H](CO)[C@@H](O)[C@H](O)[C@H]5O)C(=O)C4(C)C)[C@]3(C)C(=O)C[C@]12C"
-10.4

// returns reported max response for input CCC1C(=O)N(C)c2cnc(Nc3ccc(C(=O)NC4CCN(C)CC4)cc3OC)nc2N1C1CCCC1 (stereo not given)
-124
